FYI, the data here is from paper PMC2110899.

Target: deglycosylated form of mAb 18B7 (mouse)
Sequence (heavy, as listed by the source, chain 1 of 2): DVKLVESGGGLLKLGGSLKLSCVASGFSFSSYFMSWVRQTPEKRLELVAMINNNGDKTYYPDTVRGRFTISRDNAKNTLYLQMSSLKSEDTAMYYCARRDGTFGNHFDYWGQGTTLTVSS
Sequence (light, as listed by the source, chain 2 of 2): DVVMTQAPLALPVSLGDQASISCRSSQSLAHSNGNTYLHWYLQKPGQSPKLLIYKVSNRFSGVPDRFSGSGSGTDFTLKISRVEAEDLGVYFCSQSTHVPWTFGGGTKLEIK
Experiment: SPR; BIAcore 3000; antibody immobilised on a CM5 chip through primary amino groups; peptide P1 1.56 µM to 200 µM at 100 µl/min in 0.2 mM K2HPO4/KH2PO4 pH 6.5, 150 mM KCl, 0.01% Tween 20; 25°C; global fit to a two-state model, equilibrium constants calculated from the rate constants
Ends that are not written are not given here.
Quantity name: Kd

Reported Kd of SPNQHTPPWMLK (also: biotinylated, position not given here) [Peptide mimetic of GXM P1] : 1.07 mM
